# METHOD: Inhibition of HCV NS3/4A protease
# Parameters: species or system Hepacivirus hominis
pKi: −log10 of the molar value.
PARAMETER: pKi

MOLECULAR STRING | NUMERIC VALUE
C=C[C@@H]1C[C@]1(NC(=O)[C@@H]1C[C@@H]2CN1C(=O)[C@H](C1CCCCC1)CC(=O)NCCCCCc1cccc3c1CN(C3)C(=O)O2)C(=O)NS(=O)(=O)C1CC1 | 9.12
C=C[C@@H]1C[C@]1(NC(=O)[C@@H]1C[C@@H]2CN1C(=O)[C@H](C(C)C)NC(=O)OCCC/C=C\c1cccc3c1CN(C3)C(=O)O2)C(=O)NS(=O)(=O)C1CC1 | 10.22
C=C[C@@H]1C[C@]1(NC(=O)[C@@H]1C[C@@H]2CN1C(=O)[C@H](C1CCCCC1)CC(=O)N(C(C)C)CCCCCc1cc(OC)cc3nc(-c4ccccc4)cc(c13)O2)C(=O)NS(=O)(=O)C1CC1 | 9.22
C=C[C@@H]1C[C@]1(NC(=O)[C@@H]1C[C@@H]2CN1C(=O)[C@H](C(C)C)CC(=O)NCCCCCc1cccc3c1CN(C3)C(=O)O2)C(=O)NS(=O)(=O)C1CC1 | 8.85

---

# METHOD: Drug level in Wistar rat liver at 4 mg/kg, po after 4 hrs
# Type: ADME, organism-based
# Set-up: dose 4 mg/kg, route oral
# TEST CONTEXT: read-out: AUC
PARAMETER: concentration at 4 h (nM)

MOLECULAR STRING | NUMERIC VALUE
C=C[C@@H]1C[C@]1(NC(=O)[C@@H]1C[C@@H]2CN1C(=O)[C@H](C1CCCCC1)CC(=O)N(C(C)C)CCCCCc1cccc3c1CN(C3)C(=O)O2)C(=O)NS(=O)(=O)C1CC1 | 3000
C=C[C@@H]1C[C@]1(NC(=O)[C@@H]1C[C@@H]2CN1C(=O)[C@H](C1CCCCC1)CC(=O)NCCCCCc1cccc3c1CN(C3)C(=O)O2)C(=O)NS(=O)(=O)C1CC1 | 2200
C=C[C@@H]1C[C@]1(NC(=O)[C@@H]1C[C@@H]2CN1C(=O)[C@H](C(C)C)CC(=O)N(C(C)C)CCCCCc1cccc3c1CN(C3)C(=O)O2)C(=O)NS(=O)(=O)C1CC1 | 2200
C=C[C@@H]1C[C@]1(NC(=O)[C@@H]1C[C@@H]2CN1C(=O)[C@H](C1CCCCC1)CC(=O)N(C(C)C)CCCCCc1cc(OC)cc3nc(-c4ccccc4)cc(c13)O2)C(=O)NS(=O)(=O)C1CC1 | 9300
C=C[C@@H]1C[C@]1(NC(=O)[C@@H]1C[C@@H]2CN1C(=O)[C@H](C1CCCCC1)CC(=O)NCCCCCc1cc(OC)cc3nc(-c4ccccc4)cc(c13)O2)C(=O)NS(=O)(=O)C1CC1 | 100

---

# METHOD: Inhibition of HCV NS3/4A protease
# Parameters: species or system Hepacivirus hominis
pKi: −log10 of the molar value.
PARAMETER: pKi

MOLECULAR STRING | NUMERIC VALUE
C=C[C@@H]1C[C@]1(NC(=O)[C@@H]1C[C@@H]2CN1C(=O)[C@H](C1CCCCC1)CC(=O)N(C(C)C)CCCCCc1cccc3c1CN(C3)C(=O)O2)C(=O)NS(=O)(=O)C1CC1 | 9.21
C=C[C@@H]1C[C@]1(NC(=O)[C@@H]1C[C@@H]2CN1C(=O)[C@H](C1CCCCC1)CC(=O)NCCCCCc1cc(OC)cc3nc(-c4ccccc4)cc(c13)O2)C(=O)NS(=O)(=O)C1CC1 | 9.25
C=C[C@@H]1C[C@]1(NC(=O)[C@@H]1C[C@@H]2CN1C(=O)[C@H](C(C)C)CC(=O)N(C(C)C)CCCCCc1cccc3c1CN(C3)C(=O)O2)C(=O)NS(=O)(=O)C1CC1 | 9.14

---

Each record here notes measured AUC.
# System: Rattus norvegicus
# METHOD: AUC (0 to infinity) in Wistar rat plasma at 4 mg/kg, po
# Assay type: ADME, organism-based
# Design: time infinity, dose 4 mg/kg, route oral
# TEST CONTEXT: in vivo
PARAMETER: AUC (µM·h)

MOLECULAR STRING | PARAMETER | NUMERIC VALUE
C=C[C@@H]1C[C@]1(NC(=O)[C@@H]1C[C@@H]2CN1C(=O)[C@H](C1CCCCC1)CC(=O)N(C(C)C)CCCCCc1cc(OC)cc3nc(-c4ccccc4)cc(c13)O2)C(=O)NS(=O)(=O)C1CC1 | AUC | 1.1
C=C[C@@H]1C[C@]1(NC(=O)[C@@H]1C[C@@H]2CN1C(=O)[C@H](C1CCCCC1)CC(=O)NCCCCCc1cccc3c1CN(C3)C(=O)O2)C(=O)NS(=O)(=O)C1CC1 | AUC | 0.12
C=C[C@@H]1C[C@]1(NC(=O)[C@@H]1C[C@@H]2CN1C(=O)[C@H](C(C)C)CC(=O)N(C(C)C)CCCCCc1cccc3c1CN(C3)C(=O)O2)C(=O)NS(=O)(=O)C1CC1 | AUC | 0.22
C=C[C@@H]1C[C@]1(NC(=O)[C@@H]1C[C@@H]2CN1C(=O)[C@H](C1CCCCC1)CC(=O)N(C(C)C)CCCCCc1cccc3c1CN(C3)C(=O)O2)C(=O)NS(=O)(=O)C1CC1 | AUC | 0.09

---

# METHOD: Cmax in Wistar rat at 4 mg/kg, po
# Format: ADME, organism-based
# Set-up: dose 4 mg/kg, route oral
# TEST CONTEXT: Wistar, in vivo
PARAMETER: Cmax (nM)

MOLECULAR STRING | SCALE UNIT | NUMERIC VALUE
C=C[C@@H]1C[C@]1(NC(=O)[C@@H]1C[C@@H]2CN1C(=O)[C@H](C1CCCCC1)CC(=O)NCCCCCc1cccc3c1CN(C3)C(=O)O2)C(=O)NS(=O)(=O)C1CC1 | nM | 50
C=C[C@@H]1C[C@]1(NC(=O)[C@@H]1C[C@@H]2CN1C(=O)[C@H](C(C)C)CC(=O)N(C(C)C)CCCCCc1cccc3c1CN(C3)C(=O)O2)C(=O)NS(=O)(=O)C1CC1 | nM | 80
C=C[C@@H]1C[C@]1(NC(=O)[C@@H]1C[C@@H]2CN1C(=O)[C@H](C1CCCCC1)CC(=O)N(C(C)C)CCCCCc1cc(OC)cc3nc(-c4ccccc4)cc(c13)O2)C(=O)NS(=O)(=O)C1CC1 | nM | 380
C=C[C@@H]1C[C@]1(NC(=O)[C@@H]1C[C@@H]2CN1C(=O)[C@H](C1CCCCC1)CC(=O)N(C(C)C)CCCCCc1cccc3c1CN(C3)C(=O)O2)C(=O)NS(=O)(=O)C1CC1 | nM | 90
